# credit: ChEMBL document CHEMBL4229376

Assay: Protein binding in mouse plasma assessed as drug recovery at 10 uM after 6 hrs by equilibrium dialysis and LC-MS analysis
Format: ADME, cell-free
Conditions: read-out: Drug recovery
measure: recovery at 6 h, 10 µM

INSERT INTO results (cpd_smiles, value_observed) VALUES
  ('Nc1nc(Nc2ccc(F)cc2)nc(Oc2ccc(F)cc2)n1', '75.4%');

----------
Assay: Protein binding in mouse plasma at 10 uM after 6 hrs by equilibrium dialysis and LC-MS analysis
Type: ADME, cell-free
Details: read-out: PPB (converted)
measure: fraction unbound at 6 h, 10 µM

INSERT INTO assay_data (cpd_smiles, value_observed) VALUES
  ('Nc1nc(Nc2ccc(F)cc2)nc(Oc2ccc(F)cc2)n1', 0.023);

----------
Experiment: Drug uptake in Swiss mouse blood at 25 mg/kg, po administered as single dose after 1 hr by UPLC/MS/ESI analysis
Format: ADME, organism-based
Conditions: whole blood, read-out: Drug uptake
measure: concentration at 1 h (ng/mL)

INSERT INTO results (cpd_smiles, measure, value_observed) VALUES
  ('Nc1nc(Nc2ccc(F)cc2)nc(Oc2ccc(F)cc2)n1', 'concentration at 1 h', 1180);

----------
Listing of entries alongside the reported remaining at 0.25 h, 5 µM.
Experiment: Drug metabolism in human liver microsomes assessed as UGT mediated compound […] by measuring parent compound remaining at 5 uM after 15 mins in presence of UDPGA by UPLC/MS/ESI analysis
Assay type: ADME
Conditions: read-out: Stability
measure: remaining at 0.25 h, 5 µM (%)

INSERT INTO results (cpd_smiles, measure, value_observed) VALUES
  ('Cc1cc(C)c(Oc2nc(N)nc(Nc3ccc(F)cc3)n2)c(C)c1', 'remaining at 0.25 h, 5 µM', 95),
  ('Nc1nc(Nc2ccc(F)cc2)nc(Oc2ccc(F)cc2)n1', 'remaining at 0.25 h, 5 µM', 107),
  ('Cc1ccc(Oc2nc(N)nc(Nc3ccc(F)cc3)n2)cc1', 'remaining at 0.25 h, 5 µM', 96),
  ('Cc1ccc(Oc2nc(N)nc(Nc3ccc(F)cc3)n2)c(Cl)c1', 'remaining at 0.25 h, 5 µM', 88);

----------
Test: Drug metabolism in mouse liver microsomes assessed as UGT mediated compound […] by measuring parent compound remaining at 5 uM after 30 mins in presence of UDPGA by UPLC/MS/ESI analysis
Format: ADME
Settings: 0.5 h
measure: Stability

INSERT INTO assay_data (molecule, value_observed) VALUES
  ('Cc1ccc(Oc2nc(N)nc(Nc3ccc(F)cc3)n2)c(Cl)c1', '109%'),
  ('Cc1cc(C)c(Oc2nc(N)nc(Nc3ccc(F)cc3)n2)c(C)c1', '102%'),
  ('O=C(O)Cc1ccccc1Nc1c(Cl)cccc1Cl [DICLOFENAC]', '28%'),
  ('Nc1nc(Nc2ccc(F)cc2)nc(Oc2ccc(F)cc2)n1', '103%'),
  ('Cc1ccc(Oc2nc(N)nc(Nc3ccc(F)cc3)n2)cc1', '104%');

----------
Experiment: Drug level in Swiss mouse blood infected with Trypanosoma brucei brucei Squib 427 at 25 mg/kg, po bid for 5 days measured after 4 hrs after last dose by UPLC/MS/ESI analysis
Type: ADME, organism-based
Conditions: whole blood, read-out: Drug uptake
measure: concentration at 4 h

INSERT INTO results (cpd_smiles, value_observed) VALUES
  ('Nc1nc(Nc2ccc(F)cc2)nc(Oc2ccc(F)cc2)n1', '204 ng/mL');

----------
Listing of entries alongside the reported remaining at 0.25 h, 5 µM.
Test: Drug metabolism in human liver microsomes assessed as CYP450 mediated compound […] by measuring parent compound remaining at 5 uM after 15 mins in presence of NADPH by UPLC/MS/ESI analysis
Type: ADME
Settings: read-out: Stability
measure: remaining at 0.25 h, 5 µM (%)

INSERT INTO results (cpd_smiles, value_units, value_observed) VALUES
  ('Cc1cc(C)c(Oc2nc(N)nc(Nc3ccc(F)cc3)n2)c(C)c1', '%', 53),
  ('Nc1nc(Nc2ccc(F)cc2)nc(Oc2ccc(F)cc2)n1', '%', 93),
  ('Cc1ccc(Oc2nc(N)nc(Nc3ccc(F)cc3)n2)cc1', '%', 107),
  ('Cc1ccc(Oc2nc(N)nc(Nc3ccc(F)cc3)n2)c(Cl)c1', '%', 90);

----------
Listing of entries alongside the reported remaining at 1 h, 5 µM.
Experiment: Drug metabolism in human liver microsomes assessed as UGT mediated compound […] by measuring parent compound remaining at 5 uM after 60 mins in presence of UDPGA by UPLC/MS/ESI analysis
Assay type: ADME
Conditions: read-out: Stability
measure: remaining at 1 h, 5 µM

INSERT INTO results (cpd_smiles, value_observed) VALUES
  ('Cc1cc(C)c(Oc2nc(N)nc(Nc3ccc(F)cc3)n2)c(C)c1', '91%'),
  ('Cc1ccc(Oc2nc(N)nc(Nc3ccc(F)cc3)n2)c(Cl)c1', '79%'),
  ('Nc1nc(Nc2ccc(F)cc2)nc(Oc2ccc(F)cc2)n1', '96%'),
  ('Cc1ccc(Oc2nc(N)nc(Nc3ccc(F)cc3)n2)cc1', '94%');

----------
Test: Drug metabolism in human plasma assessed as parent compound remaining after 30 mins by UPLC/MS/ESI analysis
Format: ADME, cell-free
Settings: read-out: Stability
measure: remaining at 0.5 h (%)

INSERT INTO results (cpd_smiles, measure, value_observed) VALUES
  ('Cc1ccc(Oc2nc(N)nc(Nc3ccc(F)cc3)n2)cc1', 'remaining at 0.5 h', 94),
  ('Nc1nc(Nc2ccc(F)cc2)nc(Oc2ccc(F)cc2)n1', 'remaining at 0.5 h', 91),
  ('Cc1cc(C)c(Oc2nc(N)nc(Nc3ccc(F)cc3)n2)c(C)c1', 'remaining at 0.5 h', 104);

----------
Test: Drug level in Swiss mouse blood infected with Trypanosoma brucei brucei Squib 427 at 50 mg/kg, po bid for 5 days measured after 4 hrs after last dose by UPLC/MS/ESI analysis
Format: ADME, organism-based
Conditions: whole blood, read-out: Drug uptake
measure: concentration at 4 h (ng/mL)

INSERT INTO assay_data (cpd_smiles, measure, value_units, value_observed) VALUES
  ('Nc1nc(Nc2ccc(F)cc2)nc(Oc2ccc(F)cc2)n1', 'concentration at 4 h', 'ng/mL', 800);

----------
Test: Drug level in Swiss mouse blood infected with Trypanosoma brucei brucei Squib 427 at 50 mg/kg, po bid for 5 days measured after 2 hrs after last dose by UPLC/MS/ESI analysis
Assay type: ADME, organism-based
Settings: whole blood, read-out: Drug uptake
measure: concentration at 2 h (ng/mL)

INSERT INTO results (cpd_smiles, value_units, value_observed) VALUES
  ('Nc1nc(Nc2ccc(F)cc2)nc(Oc2ccc(F)cc2)n1', 'ng/mL', 2840);

----------
Assay: Drug metabolism in human liver microsomes assessed as UGT mediated compound […] by measuring parent compound remaining at 5 uM after 30 mins in presence of UDPGA by UPLC/MS/ESI analysis
Assay type: ADME
Conditions: read-out: Stability
Listing of entries alongside the reported remaining at 0.5 h, 5 µM.
measure: remaining at 0.5 h, 5 µM (%)

INSERT INTO assay_data (cpd_smiles, value_units, value_observed) VALUES
  ('Cc1ccc(Oc2nc(N)nc(Nc3ccc(F)cc3)n2)cc1', '%', 105),
  ('Nc1nc(Nc2ccc(F)cc2)nc(Oc2ccc(F)cc2)n1', '%', 97),
  ('Cc1ccc(Oc2nc(N)nc(Nc3ccc(F)cc3)n2)c(Cl)c1', '%', 88),
  ('Cc1cc(C)c(Oc2nc(N)nc(Nc3ccc(F)cc3)n2)c(C)c1', '%', 118);

----------
Assay: Clearance in Swiss mouse at 25 mg/kg, po administered as single dose after 24 hrs by UPLC/MS/ESI analysis
Type: ADME, organism-based
Details: in vivo
measure: CL/F (mL/min)

INSERT INTO results (cpd_smiles, value_observed) VALUES
  ('Nc1nc(Nc2ccc(F)cc2)nc(Oc2ccc(F)cc2)n1', 70.1);

----------
Assay: Protein binding in 10% FBS in Trypanosoma brucei culture medium at 10 uM after 6 hrs by equilibrium dialysis and LC-MS analysis
Assay type: ADME, cell-free, Bos taurus, Serum
Settings: cattle, read-out: PB
measure: fraction unbound at 6 h, 10 µM

INSERT INTO results (cpd_smiles, value_observed) VALUES
  ('Nc1nc(Nc2ccc(F)cc2)nc(Oc2ccc(F)cc2)n1', 0.498);

----------
Experiment: Clearance in Swiss mouse infected with Trypanosoma brucei brucei Squib 427 at 50 mg/kg, po bid for 5 days after 24 hrs by UPLC/MS/ESI analysis
Format: ADME, organism-based
Conditions: in vivo
measure: CL/F (mL/min)

INSERT INTO assay_data (cpd_smiles, value_observed) VALUES
  ('Nc1nc(Nc2ccc(F)cc2)nc(Oc2ccc(F)cc2)n1', 89.9);
